- Assay target: tetanus neurotoxin (TeNT), authentic tetanus holotoxin (Clostridium tetani, UniProt P04958 2-1315)
- Sequence (P04958 2-457 limits assumed, chain 1 of 2): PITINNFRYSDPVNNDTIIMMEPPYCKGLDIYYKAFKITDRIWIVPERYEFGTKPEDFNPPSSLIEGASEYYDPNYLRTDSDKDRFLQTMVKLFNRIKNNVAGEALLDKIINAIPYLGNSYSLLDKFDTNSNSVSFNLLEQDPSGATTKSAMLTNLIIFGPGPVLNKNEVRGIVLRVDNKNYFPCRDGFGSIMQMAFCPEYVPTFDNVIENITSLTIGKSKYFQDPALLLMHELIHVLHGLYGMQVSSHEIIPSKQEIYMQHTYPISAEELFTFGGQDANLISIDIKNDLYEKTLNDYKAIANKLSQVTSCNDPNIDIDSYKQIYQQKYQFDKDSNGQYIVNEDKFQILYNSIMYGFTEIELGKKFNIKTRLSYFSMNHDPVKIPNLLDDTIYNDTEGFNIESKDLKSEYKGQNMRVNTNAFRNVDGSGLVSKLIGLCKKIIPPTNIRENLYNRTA
- Sequence (P04958 458-1315 limits assumed, chain 2 of 2): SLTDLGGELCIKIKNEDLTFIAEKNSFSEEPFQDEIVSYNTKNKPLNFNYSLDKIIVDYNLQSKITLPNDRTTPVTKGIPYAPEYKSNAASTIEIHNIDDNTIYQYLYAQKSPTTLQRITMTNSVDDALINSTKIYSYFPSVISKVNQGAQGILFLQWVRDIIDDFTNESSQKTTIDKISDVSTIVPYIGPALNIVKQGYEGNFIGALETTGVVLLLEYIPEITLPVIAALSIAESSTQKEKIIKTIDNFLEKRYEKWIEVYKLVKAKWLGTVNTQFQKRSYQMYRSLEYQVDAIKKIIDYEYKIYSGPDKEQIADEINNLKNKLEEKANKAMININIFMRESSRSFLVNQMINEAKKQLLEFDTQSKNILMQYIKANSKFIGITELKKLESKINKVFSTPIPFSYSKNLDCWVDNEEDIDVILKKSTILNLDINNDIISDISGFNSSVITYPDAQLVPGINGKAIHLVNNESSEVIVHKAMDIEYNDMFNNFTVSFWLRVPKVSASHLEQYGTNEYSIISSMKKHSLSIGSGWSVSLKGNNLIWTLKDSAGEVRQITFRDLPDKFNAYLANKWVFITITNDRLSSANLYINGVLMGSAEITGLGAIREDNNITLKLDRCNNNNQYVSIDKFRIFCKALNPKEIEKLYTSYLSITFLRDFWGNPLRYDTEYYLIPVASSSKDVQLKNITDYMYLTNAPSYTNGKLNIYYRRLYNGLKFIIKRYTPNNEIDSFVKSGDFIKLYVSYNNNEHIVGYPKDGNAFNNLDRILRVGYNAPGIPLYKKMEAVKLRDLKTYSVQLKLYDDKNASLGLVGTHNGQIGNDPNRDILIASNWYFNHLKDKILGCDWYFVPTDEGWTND
- Procedure summary: GT1b-TeNT inhibition ELISA, unlabelled binder
Answer each item with its documented minimal absorbance at 450 nm.
Simply state the number, no unit and no words.

The binder identified as SVT13L (VHH) VHH: QVQLQESGGGLVQAGGSLRLSCAVSGTNFDDYAIGWFRQAPGKRREAVACISKTDGVTRYGNGVKGRFTISSDEARNTVFLQMNDLKDEDTAIYYCIGDFKSCGMGYKPIDHWGRGIQVTVSS registered its minimal absorbance at 450 nm at 0.126

Data point: SVT34L (VHH) VHH: QVQLQESGGGLVQPGGSLRLSCAASGRTISSYAMGWFRQAPGKQREFVAAISRSGGNTYYTDSVKGRFIISRDNAKNTLYLQMNNLKPEETAVYYCAADPNLMYESKWKYRALEAWGQGTLVTVSS ; minimal absorbance at 450 nm = 0.103

Lab book: minimal absorbance at 450 nm of SVT03L (VHH) VHH: QVQLQQSGGGSVQTGDSLTLSCTASGGSLNSYFVGWFRQSGGKEREFVSVIARTGRSTSYADSVKGRFTISRDNAANTVFLTMNNLRPDDTAIYYCAAVGRPGVLHLTQSYDYWGQGTQVTVSS noted as 0.903

Entry under test: SVT29L (VHH) VHH: QVQLQESGGGLVQTGGSLTLSCRAYGRAFDNYHFGWFRQAPGKDREFVASISWKGGSTYRANFALGRFTSSVNRGESSVYLHMSGLTPEDTATYYCAAHDGGDWNYHTGMDYWGKGILVTVSS . Its minimal absorbance at 450 nm was 0.135
